- experimental_protocol: NCI Yeast Anticancer Drug Screen. Data for the sgs1 mgt1 strain (AID 161);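 note: 0% = growth of cultures given vehicle only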
- condition_notes: S. cerevisiae sgs1 mgt1 strain, at 50.0 µM, hits give high values
Compounds without any hit were thinned out: in the full panel of roughly 79,000, 15% have a hit.
Threshold rule: growth inhibition greater than or equal to 70% is Criterion met; below that, Criterion not met.

Examples from the recorded data:
COC1=C(OC)C(=O)C(Sc2ccc3ccccc3c2)=CC1=O :: Criterion met
CC(C)(C)CC(C)(C)c1cc(O)c(O)c(CN2CCCCC2)c1 :: Criterion not met

Is it the case that O=C(O)c1cc2ccccc2c2c1C(=O)c1ccccc1-2 has growth inhibition reaching or exceeding 70%?
Criterion met

Identify whether the reported growth inhibition of the following compound is 70% or greater: c1ccc2c(c1)sc1c3cnccc3ccc21
Criterion not met

Textbook exercise: given the entry O=C1C=C(Cl)C(=O)N1c1cccc(Cl)c1 , state whether its growth inhibition is greater than or equal to 70%.
Criterion met

----------
Task for the reader: assign each of the following compounds its reported growth inhibition.
- experimental_protocol: NCI Yeast Anticancer Drug Screen. Data for the rad50EPP+ strain (AID 151);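 note: 0% = growth of vehicle-treated control cultures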
- condition_notes: S. cerevisiae rad50 mutant strain, at 1.2 µM, hits give high values
The panel holds about 79,000 compounds, 15% with a hit somewhere; the sample as a whole holds those more often.
Numbers only, in %.

Completed entries (count: 6):
CCCCCCN(CCCCCC)CC(O)c1ccnc2ccc(OC)cc12 (configuration not stated) :: -4
O=Cc1ccc2c(c1)C(=O)c1ccccc1C2=O :: 0
COC(=O)C1(C)CCc2c(ccc3ccccc23)C1=O (configuration not stated) :: -1
CC(/C=C/c1ccccc1)=N\NC(N)=S :: -5
O=C(C[n+]1ccc2ccccc2c1)c1ccc2ccccc2c1 :: -19
O=c1c2ccccc2nc(-c2ccccc2)n1O :: 3

Could you report growth inhibition for every entry in the following list?
1. N/C(=N/N=C/c1cc(Br)cc(Br)c1O)NO
2. CC(C)C(C)/C=C\C(C)C1CCC2C3=CC=C4CC(O)CCC4(C)C3CCC21C (configuration not stated)
3. CC(=O)Nc1ccc2c(c1)Cc1cc(N=C3C=CC(=O)O3)ccc1-2
4. Cc1ccc(N=Nc2ccc(O)c(=O)cc2)cc1

1: -27; 2: -2; 3: 37; 4: -31

// each listed compound needs a value for growth inhibition
1. CC(=O)Nc1ccc2c(c1)-c1ccccc1C2=O
2. CN(C)c1ccc(N=Nc2ccncc2)cc1

1. -2
2. 3

----------
Give measured growth inhibition for each item. Keep answers brief.
- experimental_protocol: NCI Yeast Anticancer Drug Screen. Data for the rad52 strain (AID 147);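 note: 0% = growth of vehicle-treated control cultures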
- condition_notes: S. cerevisiae rad52 mutant growth inhibition; at 3.7 µM; hits give high values
About 79,000 compounds went through this panel and 15% of them were active in at least one assay; those are over-represented in the sample as a whole.
Answers are plain numbers, in %.

CC(/C=C/c1ccccc1)=N\NC(N)=S :: 16
CC1CC[C@]2(C(=O)O)CCC3(C)C(=CC(=O)C4[C@@]5(C)CCC(=O)C(C)(C)C5CC[C@]43C)[C@@H]2[C@H]1C (some centres not stated) :: 43
Cc1c(C)c(C)c(CSC(=N)N)c(C)c1C :: -17
CC(=O)Nc1ccc(/C=C/[N+](=O)[O-])cc1 :: 23
COc1ccc(/C=C2\NC(=S)N(/C=C3\C(=O)Oc4ccccc4C3=O)C2=O)cc1 :: -1
CCOC(=O)C(C(=O)OCC)=P(c1ccccc1)(c1ccccc1)c1ccccc1 :: 0
CN(C)CCNC(=O)c1cccc2c1Oc1c(cccc1[N+](=O)[O-])O2 :: -21
Cc1ccc(NC(c2ccccc2)c2ccc3cccnc3c2O)cc1 (configuration not stated) :: 0
Cc1ccc(S/C(=C\C(=O)O)c2ccccc2)cc1 :: 7
CC1CC(C)(C)CC(OCCN2CCCCC2)(c2ccccc2)C1 (configuration not stated) :: 8

Batch of 2 compounds: report growth inhibition for each.
1. Cc1sc2ccc3ccccc3c2[n+]1C
2. Nc1ncnc2c1ncn2C1OC(CO)CC1O (configuration not stated)

-14
-10
